# Experimental system: Human factor Xa (Homo sapiens)
# Construct: leads from XII to XIIa to XIa to IXa and to the conversion of X to Xa; purchased Enzyme Research Laboratories, South Bend IN
# Sequence (P00742 235-488 limits assumed): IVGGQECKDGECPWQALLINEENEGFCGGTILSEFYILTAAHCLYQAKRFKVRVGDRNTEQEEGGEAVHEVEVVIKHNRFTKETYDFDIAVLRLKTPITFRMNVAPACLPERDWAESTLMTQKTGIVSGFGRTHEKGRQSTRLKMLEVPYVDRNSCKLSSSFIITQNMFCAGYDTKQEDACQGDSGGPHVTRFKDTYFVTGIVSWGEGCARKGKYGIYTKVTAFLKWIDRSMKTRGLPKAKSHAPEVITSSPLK
# Sequence (P00742 41-179 limits assumed): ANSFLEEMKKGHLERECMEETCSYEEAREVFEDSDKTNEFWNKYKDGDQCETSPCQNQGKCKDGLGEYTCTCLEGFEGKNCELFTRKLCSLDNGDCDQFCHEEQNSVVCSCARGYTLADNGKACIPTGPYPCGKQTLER
# Procedure summary: Xa Assay
# Assay type: biochemical
# Recorded conditions: % inhibition at 30 µM (cells with % or %@30, bare 0)
The label is satisfied for IC50 or % Inhibition Factor Xa (30 µM) below 4% and not satisfied for IC50 or % Inhibition Factor Xa (30 µM) equal to or exceeding 4%.

Solved cases (3 shown):
• CN1CCCC1CCNc1nc(Cl)c(-c2ccccc2)n(CC(=O)NCc2ccc(C(=N)N)cc2)c1=O (stereo not drawn) = not satisfied
• N=C(N)c1ccc(CNC(=O)Cn2c(-c3ccc(-c4ccccc4)cc3)c(Cl)nc(NCCc3ccccc3)c2=O)cc1 = satisfied
• Nc1n[nH]c2cc(CNC(=O)Cn3c(-c4ccccc4)cnc(NCCc4ccccc4)c3=O)ccc12 = satisfied

Say whether its IC50 or % Inhibition Factor Xa (30 µM) is strictly beneath 4%. Entry: N=C(N)c1ccc(CNC(=O)Cn2c(-c3ccc4c(c3)OCO4)c(Cl)nc(NCCc3cccc(Cl)c3)c2=O)cc1 not satisfied

Say whether its IC50 or % Inhibition Factor Xa (30 µM) is strictly beneath 4%. Entry: CSCC(C(=O)NCc1ccc(C(=N)N)cc1)n1c(-c2ccccc2)c(Cl)nc(NC2CCC2)c1=O (stereo not drawn) satisfied

Say whether its IC50 or % Inhibition Factor Xa (30 µM) is strictly beneath 4%. Entry: N=C(N)c1ccc(CNC(=O)Cn2c(-c3ccc(Cl)cc3)c(Cl)nc(NCc3ccncc3)c2=O)cc1 not satisfied

Say whether its IC50 or % Inhibition Factor Xa (30 µM) is strictly beneath 4%. Entry: N=C(N)c1ccc(CNC(=O)Cn2c(-c3ccc(Cl)cc3)c(Cl)nc(NCCc3ccc(Cl)cc3)c2=O)cc1 not satisfied
